- Assay text: Acute toxicity, oral, in mice
- Cond: mouse, in vivo; oral administration; young adult female mice of NMRI-strain; read-out: Acute toxicity, LD₅₀
Readout kind: LD50
Answer format: number, then unit.

LD50 reported for this compound Fc1ccc(CCC(Cc2c[nH]cn2)c2ccc(F)cc2)cc1 (stereo not shown) : 400 mg/kg
